ASSAY: Selectivity ratio of IC50 for oxidative phosphorylation system-mediated ATP synthesis in bovine heart submitochondrial particle to IC50 for oxidative phosphorylation system-mediated ATP synthesis in Acinetobacter baumannii membranes
Format: cell membranes
PARAMETER_MEASURED: Ratio IC50
Just the number, please, no unit attached.

These solved cases illustrate the format of a correct answer.
> print(dat)
                                   molecule  endpoint.value
1  N=c1n(CCCOc2ccc(Cl)cc2Cl)c2ccccc2n1CCn1ccnc1             2.7
2  CCN(CC)CCn1c(=N)n(CCCc2ccc(Cl)cc2Cl)c2ccccc21             1.9
3  N=c1n(CCCOc2ccc(Cl)cc2Cl)c2ccccc2n1CCN1CCOCC1             2.8
4  N=c1n(CCCOc2ccc(Cl)cc2Cl)c2ccccc2n1CCN1CCCC1=O             0.9
5  Br.CCN(CC)CCn1c(=N)n(CCCOc2ccc(Cl)cc2Cl)c2ccccc21               3
6  CC(C)(C)OC(=O)N1CCC(CCn2c(=N)n(CCCOc3ccc(Cl)cc3Cl)c3ccccc32)CC1             0.6

Ask: Using known records, supply Ratio IC50 for CCN(CC)CCn1c(=O)n(CC(O)COc2ccc(Cl)cc2Cl)c2ccccc21 (stereo not drawn)
Result: 1.8

Ask: Using known records, supply Ratio IC50 for `CCOCCOCCn1c(=N)n(CCCOc2ccc(Cl)cc2Cl)c2ccccc21`
Result: 1.1

Ask: Using known records, supply Ratio IC50 for `N=c1n(CCCOc2ccc(Cl)cc2Cl)c2ccccc2n1CCCN1CCCCC1`
Result: 6.2

Ask: Using known records, supply Ratio IC50 for CCN(CC)CCNc1nc2ccccc2n1CC(O)COc1ccc(Cl)cc1Cl (stereo not drawn)
Result: 9.4

Ask: Using known records, supply Ratio IC50 for `N=c1n(CCCOc2ccc(Cl)cc2Cl)c2ccccc2n1CCN1CCCC1`
Result: 2.3

Ask: Using known records, supply Ratio IC50 for `Nc1nc2ccccc2n1CCCOc1ccc(Cl)cc1Cl`
Result: 0.9

All values here come from ChEMBL document CHEMBL3352394.
